PROTOCOL DETAILS: solvent given as SMILES
RUN PARAMETERS: in CC#N
PROPERTY LABEL: absorption maximum (nm)
The answer is to be given in nm; state only the numeric part.

For orientation, consider the following solved cases.
{"COMPOUND STRING": "N#Cc1nn(-c2ccc(F)cc2)nc1N1CCCC1", "PROPERTY LABEL": "absorption maximum", "RESULT": 340}
{"COMPOUND STRING": "COC(=O)c1cc(=O)n(C)c2cc(-c3cc(OC)c(OC)c(OC)c3)sc12", "PROPERTY LABEL": "absorption maximum", "RESULT": 398}
{"COMPOUND STRING": "CN(C)CCN(Cc1c2ccccc2cc2ccccc12)c1ccc([N+](=O)[O-])cc1[N+](=O)[O-]", "PROPERTY LABEL": "absorption maximum", "RESULT": 392}
{"COMPOUND STRING": "Cn1c(=O)nc2n(C)c3ccccc3nc-2c1=O", "PROPERTY LABEL": "absorption maximum", "RESULT": 437}
{"COMPOUND STRING": "COc1ccccc1-c1nc2c([nH]1)C1=CC(=O)S[C@]1(C)[C@@]1(C)SC(=O)C=C21", "PROPERTY LABEL": "absorption maximum", "RESULT": 390}
{"COMPOUND STRING": "O=C1C=CC2=Cc3ccccc3B(O)N12", "PROPERTY LABEL": "absorption maximum", "RESULT": 360}
{"COMPOUND STRING": "COc1cc(-c2nc(-c3ccccc3)c(-c3ccccc3)[nH]2)c(OC)cc1/C=C/c1ccncc1", "PROPERTY LABEL": "absorption maximum", "RESULT": 392}
{"COMPOUND STRING": "CC1=N/C(=C\\c2ccc(N(C)C)cc2)C(=O)N1C", "PROPERTY LABEL": "absorption maximum", "RESULT": 422}
{"COMPOUND STRING": "COc1cc(N(c2ccccc2)c2ccccc2)ccc1C=C(C#N)C#N", "PROPERTY LABEL": "absorption maximum", "RESULT": 440}
{"COMPOUND STRING": "N#CSc1ccc2n1[B-](F)(F)[N+]1=C(N3CCOCC3)C=CC1=C2c1ccccc1", "PROPERTY LABEL": "absorption maximum", "RESULT": 452}

The molecule identified as "O=Cc1ccc(-c2ccc(C3=CCCCC3)s2)s1" registered its absorption maximum at 358
